The measured values listed here are drawn from patent US6610677B2.

Examples of compounds with documented pKi follow.
- target-or-system: human Src kinase (Homo sapiens)
- Construct: full length recombinant human Src kinase; purchased Upstate Biotechnology 14-117; host or cells: baculo viral cells (baculovirus expression system)
- Sequence (P12931 whole entry): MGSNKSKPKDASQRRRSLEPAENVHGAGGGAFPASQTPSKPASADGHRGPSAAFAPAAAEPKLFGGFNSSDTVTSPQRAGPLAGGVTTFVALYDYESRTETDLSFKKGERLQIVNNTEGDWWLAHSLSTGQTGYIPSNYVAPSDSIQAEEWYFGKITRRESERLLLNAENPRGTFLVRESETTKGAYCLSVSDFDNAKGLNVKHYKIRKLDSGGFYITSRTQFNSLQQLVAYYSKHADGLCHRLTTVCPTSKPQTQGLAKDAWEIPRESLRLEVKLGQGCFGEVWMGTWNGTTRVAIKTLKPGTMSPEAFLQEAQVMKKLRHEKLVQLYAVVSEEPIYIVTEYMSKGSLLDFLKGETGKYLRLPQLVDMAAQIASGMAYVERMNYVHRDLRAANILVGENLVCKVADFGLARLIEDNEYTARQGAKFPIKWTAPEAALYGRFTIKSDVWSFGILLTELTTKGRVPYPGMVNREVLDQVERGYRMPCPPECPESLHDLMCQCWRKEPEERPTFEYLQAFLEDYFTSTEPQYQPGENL
- protocol-summary: SRC inhibition assay (radioactivity-based or spectrophotometric assay)
- Assay type: biochemical
- measurement-setup: assay A or B not specified; read-out: Ki value on SRC
pKi: −log10 of the molar value.
quantity: pKi

>  <smiles-data>
Cc1cc(Nc2nc(-c3ccc(-c4ccccc4)cc3)nc3ccccc23)[nH]n1

>  <target-or-system>
human Src kinase (Homo sapiens)

>  <assay-value>
> 7.00

$$$$
>  <smiles-data>
Cc1cc(Nc2nc(-c3cccc(I)c3)nc3ccccc23)[nH]n1

>  <target-or-system>
human Src kinase (Homo sapiens)

>  <assay-value>
> 7.00

$$$$
>  <smiles-data>
CCc1cc(Nc2nc(-c3ccccc3)nc3ccccc23)[nH]n1

>  <target-or-system>
human Src kinase (Homo sapiens)

>  <assay-value>
> 7.00

$$$$
>  <smiles-data>
COc1cccc(-c2nc(Nc3cc(C)n[nH]3)c3ccccc3n2)c1

>  <target-or-system>
human Src kinase (Homo sapiens)

>  <assay-value>
> 7.00

$$$$
>  <smiles-data>
Cc1cc(Nc2nc(-c3ccc(Br)cc3)nc3ccccc23)[nH]n1

>  <target-or-system>
human Src kinase (Homo sapiens)

>  <assay-value>
> 7.00

$$$$
>  <smiles-data>
CCSc1ccc(-c2nc(Nc3cc(C)n[nH]3)c3ccccc3n2)cc1

>  <target-or-system>
human Src kinase (Homo sapiens)

>  <assay-value>
> 7.00

$$$$
>  <smiles-data>
Cc1cc(Nc2nc(-c3ccc(Cl)c(Cl)c3)nc3ccccc23)[nH]n1

>  <target-or-system>
human Src kinase (Homo sapiens)

>  <assay-value>
> 7.00

$$$$
>  <smiles-data>
Cc1cc(Nc2nc(-c3ccc(N(C)C)cc3)nc3ccccc23)[nH]n1

>  <target-or-system>
human Src kinase (Homo sapiens)

>  <assay-value>
> 7.00

$$$$
>  <smiles-data>
Cc1cc(Nc2nc(-c3ccc(C#N)cc3)nc3ccccc23)[nH]n1

>  <target-or-system>
human Src kinase (Homo sapiens)

>  <assay-value>
> 7.00

$$$$
>  <smiles-data>
c1ccc(-c2nc(Nc3cc(C4CCCC4)n[nH]3)c3ccccc3n2)cc1

>  <target-or-system>
human Src kinase (Homo sapiens)

>  <assay-value>
> 7.00

$$$$
>  <smiles-data>
Cc1cc(Nc2nc(-c3ccccc3)nc3ccccc23)[nH]n1

>  <target-or-system>
human Src kinase (Homo sapiens)

>  <assay-value>
> 7.00

$$$$
